Test: ATG_Oct_MLP_CIS: Attagene CIS-FACTORIAL HepG2 Assay for human Octamer-Binding Transcription Factor (Oct) (AID 2282993)
Details: HepG2 Attagene cis-factorial Oct reporter, mRNA; actives raise or lower the signal
The source made the active and inactive calls. The calls were made as follows: active = hit-call score of the fitted dose curve at least 0.9, where 1 is the maximum; inactive = score below 0.9.
Outcome codes: 1 (active), 0 (inactive)

>  <COMPOUND>
CCCCC(CC)COCCC#N (stereo not drawn)

>  <CAT>
0

$$$$
>  <COMPOUND>
OCc1cccnc1

>  <CAT>
0

$$$$
>  <COMPOUND>
COc1ccc(Nc2ccccc2)c(C)c1

>  <CAT>
0

$$$$
>  <COMPOUND>
Nc1nc2ccc([N+](=O)[O-])cc2s1

>  <CAT>
0

$$$$
>  <COMPOUND>
CC(=O)OCC=Cc1ccccc1

>  <CAT>
0

$$$$
>  <COMPOUND>
CC1(CO)CN(c2ccccc2)NC1=O (stereo not drawn)

>  <CAT>
0

$$$$
>  <COMPOUND>
CCCCCCCCCCN

>  <CAT>
0

$$$$
>  <COMPOUND>
CC1CCC(C(C)CS)CC1S (stereo not drawn)

>  <CAT>
1

$$$$

Source of measurements: PubChem BioAssay (EPA / NIEHS)
